pIC50 values, listed per item
biological target: HLA-A2.1 (heavy chain with human beta 2-microglobulin) (human); test: competition with 5 nM radiolabeled HBc18-27 for HLA-A2.1 + b2m, gel filtration
pIC50: −log10 of the molar value.
endpoint name: pIC50

# binder, observed
rows = [
    ("YTWGQYWQV (modifications not checked) [G9-154-1Y]", 8.60),
    ("KMWGQYWQV (modifications not checked) [G9-154-2M]", 8.19),
    ("ATWGQYWQV (modifications not checked) [G9-154-1A]", 8.28),
    ("ALWGQYWQV (modifications not checked) [G9-154-1A2L]", 8.64),
    ("LTWGQYWQV (modifications not checked) [G9-154-1L]", 8.47),
    ("WLWGQYWQV (modifications not checked) [G9-154-1W2L]", 8.55),
    ("FLWGQYWQV (modifications not checked) [G9-154-1F2L]", 8.59),
    ("FTWGQYWQV (modifications not checked) [G9-154-1F]", 8.80),
]
